Target: Cannabinoid receptor 2 (Homo sapiens, UniProt P34972)
Sequence (P34972 whole entry): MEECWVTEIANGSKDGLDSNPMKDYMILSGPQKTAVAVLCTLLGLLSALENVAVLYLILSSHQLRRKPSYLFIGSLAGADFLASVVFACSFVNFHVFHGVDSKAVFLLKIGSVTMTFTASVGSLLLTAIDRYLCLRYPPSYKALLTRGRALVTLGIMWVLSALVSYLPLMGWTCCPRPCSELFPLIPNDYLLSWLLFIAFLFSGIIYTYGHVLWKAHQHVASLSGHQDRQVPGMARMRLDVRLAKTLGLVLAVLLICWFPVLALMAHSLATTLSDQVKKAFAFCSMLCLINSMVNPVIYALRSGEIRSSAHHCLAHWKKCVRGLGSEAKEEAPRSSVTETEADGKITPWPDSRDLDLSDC
Experiment: Positive allosteric modulator activity at human CB2R expressed in CHO-K1 cells assessed as potentiation of CP55940-stimulated beta-arrestin2 recruitment measured after 90 mins by PathHunter assay
Format: cell-based
parameterMeasured: EC50 (nM)
Please state the figure in nM; there is no need to write the unit.

Cc1c(Br)cn(Cc2ccc(F)cc2)c(=O)c1NC(=O)C1CCCCCC1 ... 17

EC50 measured on `Cc1c(Br)cn(Cc2ccccc2Cl)c(=O)c1NC(=O)C1CCCCCC1` = 150

###

Target: Cannabinoid receptor 2 (Homo sapiens, UniProt P34972)
Assay: Positive allosteric modulator activity at human CB2R expressed in CHO-K1 cell membrane assessed as increase in [3H]CP55940 binding at 100 nM measured after 60 mins by liquid scintillation spectrometry
Assay type: cell membranes
Activity calls are given as the source filed them. No cut-off for these calls is given here.
parameterMeasured: Activity

Observe how each entry below is paired with its result.
Cc1c(Br)cn(Cc2ccc(Cl)cc2)c(=O)c1NC(=O)C1CCCCCC1 ... inactive
Cc1c(Br)cn(Cc2ccc(F)cc2)c(=O)c1NC(=O)NC1CCCCCC1 ... inactive
CCCCCn1cc(Br)c(C)c(NC(=O)C2CCCCCC2)c1=O ... inactive
Cc1c(Br)cn(Cc2ccc(F)cc2)c(=O)c1NC(=O)OC1CCCCCC1 ... inactive
Cc1c(Br)cn(Cc2cccc(F)c2)c(=O)c1NC(=O)C1CCCCCC1 ... inactive
Cc1c(Br)cn(Cc2ccccc2)c(=O)c1NC(=O)C1CCCCCC1 ... inactive

Reported Activity of `Cc1c(Br)cn(Cc2ccc(F)cc2)c(=O)c1[N+](=O)[O-]` : inactive

Form field Activity, entry `CC(=O)Nc1c(C)c(Br)cn(Cc2ccc(F)cc2)c1=O` : inactive

Just so you know, measured Activity for `Cc1c(Br)cn(CCN2CCOCC2)c(=O)c1NC(=O)C1CCCCCC1` came out at inactive

For reference, reported Activity for `Cc1c(Br)cn(CCCCCO)c(=O)c1NC(=O)C1CCCCCC1` stands at inactive

Entry Cc1c(Br)cn(Cc2ccc(F)cc2)c(=O)c1NC(=O)C1CCC(C)CC1 (stereo not given) , Activity reported as inactive

Form: compound = `Cc1c(Br)cn(Cc2ccc(I)cc2)c(=O)c1NC(=O)C1CCCCCC1` ; Activity = inactive

Notebook: `CCCCCC(=O)Nc1c(C)c(Br)cn(Cc2ccc(F)cc2)c1=O` , Activity read as inactive

# Activity (compound: `Cc1c(Br)cn(Cc2ccc(F)cc2)c(=O)c1NC(=O)c1ccccc1` ) is inactive

Sample `Cc1c(Br)cn(Cc2ccc(F)cc2)c(=O)c1N` ; Activity observed: inactive
